Source listed as patent US20200279616A1.

- experimental-system: Thrombin digested soluble HLA-DRB1*15:01 (CLIP0 placeholder construct) (human)
- assay-overview: FP probe displacement; probe m27
recorded-endpoint: % inhibition of probe binding at 0.1uM (%)

In [3]: df
Out[3]:
                                     binder                       recorded_endpoint  result
0  PQILPYPAPEEAQEN (modifications not checked) [M231]  % inhibition of probe binding at 0.1uM      21
1  PQLRQWWAQGADPLA (modifications not checked) [M247]  % inhibition of probe binding at 0.1uM      42
2  ASLRSWPSTWAPWAS (modifications not checked) [M371]  % inhibition of probe binding at 0.1uM      46
3  LLRPGQIVAFDSTAQ (modifications not checked) [M248]  % inhibition of probe binding at 0.1uM       1
4  PPIDGYPNHPCFEPE (modifications not checked) [M230]  % inhibition of probe binding at 0.1uM      49
